assay: Cyclic voltammetry, redox potentials; assay type: physicochemical; conditions: first reduction step, DMSO, vs Fc+/Fc
Reported Endpoint: E1/2 Red1 (DMSO) vs Fc+/Fc

# Molecule, Reported Endpoint, Reported Result
data = [
    ("CN(C)C(=NN=Cc1ccc(CN2CCOCC2)cn1)[S][Cu][Cl] [complex 2, [Cu(L^2)Cl]]", "E1/2 Red1 (DMSO) vs Fc+/Fc", "–0.80 V"),
    ("[Cl][Cu][S]C(=NN=Cc1ccc(CN2CCOCC2)cn1)N1CCOCC1 [complex 4, [Cu(L^4)Cl]]", "E1/2 Red1 (DMSO) vs Fc+/Fc", "–0.80 V"),
    ("[Cl][Cu][S]C(=NN=Cc1ccc(CN2CCOCC2)cn1)N1CCCC1 [complex 3, [Cu(L^3)Cl]]", "E1/2 Red1 (DMSO) vs Fc+/Fc", "–0.80 V"),
]

====

assay: n-octanol/water distribution coefficient, shake-flask; format: physicochemical; details: n-octanol/buffered aqueous solution, pH 7.40, UV-vis
Reported Endpoint: log D7.4

# Compound, Reported Endpoint, Reported Result
rows = [
    ("[Cl][Cu][S]C(=NN=Cc1ccc(CN2CCOCC2)cn1)N1CCOCC1 [complex 4, [Cu(L^4)Cl]]", "log D7.4", "+0.12 ± 0.01"),
    ("CN(C)C(=NN=Cc1ccc(CN2CCOCC2)cn1)[S][Cu][Cl] [complex 2, [Cu(L^2)Cl]]", "log D7.4", "+0.30 ± 0.01"),
    ("[Cl][Cu][S]C(=NN=Cc1ccc(CN2CCOCC2)cn1)N1CCCC1 [complex 3, [Cu(L^3)Cl]]", "log D7.4", "+0.86 ± 0.02"),
]

API: the following record is the query input.
Reported log D7.4 of [Cl][Cu][S]C(=NN=Cc1ccc(CN2CCOCC2)cn1)Nc1ccccc1 [complex 5, [Cu(L^5)Cl]] : +1.49 ± 0.06

====

Assay: Cyclic voltammetry, redox potentials
Format: physicochemical
Settings: first reduction step, MeOH, vs NHE (in brackets)
Protocol: To assess the redox properties of 1-6, detailed electrochemical and spectroscopic studies in various solvents were performed using cyclic voltammetry as well as EPR-spectroelectrochemistry. Additionally, the UV-vis spectra of 1-5 were measured (Figure S8). […] The cyclic voltammograms were measured in the cathodic region in different solvents (DMSO, methanol, DMSO/H2O). […] EPR spectra were recorded with the EMX plus. […]
Let's look at some compounds and their measured E1/2 Red1 (MeOH) vs NHE.

# Compound, E1/2 Red1 (MeOH) vs NHE
measured = [
    ("[Cl][Cu][S]C(=NN=Cc1ccc(CN2CCOCC2)cn1)N1CCOCC1 [complex 4, [Cu(L^4)Cl]]", "+0.15 V"),
    ("CN(C)C(=NN=Cc1ccc(CN2CCOCC2)cn1)[S][Cu][Cl] [complex 2, [Cu(L^2)Cl]]", "+0.10 V"),
    ("NC(=NN=Cc1ccc(CN2CCOCC2)cn1)[S][Cu][Cl] [complex 1, [Cu(L^1)Cl]]", "+0.07 V"),
    ("[Cl][Cu][S]C(=NN=Cc1ccc(CN2CCOCC2)cn1)N1CCCC1 [complex 3, [Cu(L^3)Cl]]", "+0.15 V"),
]

Here is the next item to consider.
Notebook: [Cl][Cu][S]C(=NN=Cc1ccc(CN2CCOCC2)cn1)Nc1ccccc1 [complex 5, [Cu(L^5)Cl]] , E1/2 Red1 (MeOH) vs NHE read as +0.16 V

====

assay: Cyclic voltammetry, redox potentials; type: physicochemical; conditions: first reduction step, MeOH, vs Fc+/Fc
Reported Endpoint: E1/2 Red1 (MeOH) vs Fc+/Fc

# Compound, Reported Result
records = [
    ("[Cl][Cu][S]C(=NN=Cc1ccc(CN2CCOCC2)cn1)N1CCOCC1 [complex 4, [Cu(L^4)Cl]]", "–0.49 V"),
    ("[Cl][Cu][S]C(=NN=Cc1ccc(CN2CCOCC2)cn1)N1CCCC1 [complex 3, [Cu(L^3)Cl]]", "–0.49 V"),
]

====

S. aureus MIC100 overview
test system: Staphylococcus aureus CECT 86 (ATCC 12600); test: MIC microdilution, S. aureus; type: cell-based; details: planktonic cells, lowest concentration completely inhibiting growth
State just the number; it will be interpreted in µg/mL.

Recorded S. aureus MIC100, per entry:
# Molecule, S. aureus MIC100 [µg/mL]
records = [
    ("CN(C)C(=NN=Cc1ccc(CN2CCOCC2)cn1)[S][Cu][Cl] [complex 2, [Cu(L^2)Cl]]", 10),
    ("[Cl][Cu][S]C(=NN=Cc1ccc(CN2CCOCC2)cn1)Nc1ccccc1 [complex 5, [Cu(L^5)Cl]]", 10),
    ("[Cl][Cu][S]C(=NN=Cc1ccc(CN2CCOCC2)cn1)N1CCOCC1 [complex 4, [Cu(L^4)Cl]]", 10),
]

Now, please, on to the next molecule.
# molecule [Cl][Cu][S]C(=NN=Cc1ccc(CN2CCOCC2)cn1)N1CCCC1 [complex 3, [Cu(L^3)Cl]] ; its S. aureus MIC100 = 10

====

test: Solubility in water; format: physicochemical; details: sterile water stock solutions
We begin with a simple list: items and their reported solubility in water.

Answered examples (3):
# Molecule, Reported Result
data = [
    ("[Cl][Cu][S]C(=NN=Cc1ccc(CN2CCOCC2)cn1)N1CCCC1 [complex 3, [Cu(L^3)Cl]]", "300 µM"),
    ("NC(=NN=Cc1ccc(CN2CCOCC2)cn1)[S][Cu][Cl] [complex 1, [Cu(L^1)Cl]]", "≤ 2000 µM"),
    ("CN(C)C(=NN=Cc1ccc(CN2CCOCC2)cn1)[S][Cu][Cl] [complex 2, [Cu(L^2)Cl]]", "≤ 2000 µM"),
]

Now look at this entry.
# solubility in water of [Cl][Cu][S]C(=NN=Cc1ccc(CN2CCOCC2)cn1)Nc1ccccc1 [complex 5, [Cu(L^5)Cl]] = ≤ 2000 µM

====

tested on: Pseudomonas aeruginosa PAO1 CECT 4122 (ATCC 15692); test: MIC microdilution, P. aeruginosa; type: cell-based; settings: Pseudomonas aeruginosa; planktonic cells, lowest concentration completely inhibiting growth; read-out: P. aeruginosa MIC100
Reported Endpoint: MIC (µg/mL)
Just the number in µg/mL, nothing appended.

# Compound, Measured On, Reported Result
data = [
    ("O=C(O)c1cn(C2CC2)c2cc(N3CCNCC3)c(F)cc2c1=O [CPX, ciprofloxacin, reference compound]", "Pseudomonas aeruginosa PAO1 CECT 4122 (ATCC 15692)", 2),
]

Turning to the following compound.
// CN(C)C(=S)N/N=C/c1ccc(CN2CCOCC2)cn1 [HL^2] : MIC value = 100

====

Tested on: Pseudomonas aeruginosa PAO1 CECT 4122 (ATCC 15692)
Experiment: MIC microdilution, P. aeruginosa
Type: cell-based
Conditions: planktonic cells, lowest concentration completely inhibiting growth
Protocol: Wild-type P. aeruginosa PAO1 strain CECT 4122 (ATCC 15692) and S. aureus CECT 86 (ATCC 12600) were obtained from the Spanish Type Culture Collection (CECT). All strains were routinely cultivated in TSB medium (Sharlab, Spain) at 37 °C. MIC assays were determined by the microdilution method using TSB broth following the method described by the Clinical and Laboratory standards Institute.[94] In brief, compounds were diluted in a 96-well microtiter plate (tissue culture-treated polystyrene; […]
P. aeruginosa MIC100 by entry:
Report the value in µg/mL with no unit label.

Examples with answers:
# Molecule, P. aeruginosa MIC100 / µg/mL
rows = [
    ("CN(C)C(=NN=Cc1ccc(CN2CCOCC2)cn1)[S][Cu][Cl] [complex 2, [Cu(L^2)Cl]]", 200),
    ("[Cl][Cu][S]C(=NN=Cc1ccc(CN2CCOCC2)cn1)N1CCOCC1 [complex 4, [Cu(L^4)Cl]]", 400),
    ("[Cl][Cu][S]C(=NN=Cc1ccc(CN2CCOCC2)cn1)N1CCCC1 [complex 3, [Cu(L^3)Cl]]", 400),
]

Now take the following molecule into account.
For record [Cl][Cu][S]C(=NN=Cc1ccc(CN2CCOCC2)cn1)Nc1ccccc1 [complex 5, [Cu(L^5)Cl]] the listed P. aeruginosa MIC100 is 450

====

tested on: A2780 cells; assay: Cellular accumulation of Cu by ICP-MS; assay type: cell-based, human; conditions: 24 h exposure, 1 μM
Entries and their cellular accumulation A2780 values follow.
Express your answer as a number followed by its unit.

# Molecule, Measured On, cellular accumulation A2780
measured = [
    ("CSC(=NN=Cc1ccc(CN2CCOCC2)cn1)[NH][Cu][Cl] [complex 6, [Cu(L^6)Cl]]", "A2780 cells", "0.47 ± 0.08 nmol Cu/mg protein"),
    ("CN(C)C(=NN=Cc1ccc(CN2CCOCC2)cn1)[S][Cu][Cl] [complex 2, [Cu(L^2)Cl]]", "A2780 cells", "3.9 ± 0.6 nmol Cu/mg protein"),
    ("[Cl][Cu][S]C(=NN=Cc1ccc(CN2CCOCC2)cn1)Nc1ccccc1 [complex 5, [Cu(L^5)Cl]]", "A2780 cells", "4.1 ± 0.9 nmol Cu/mg protein"),
]

The reported value for NC(=NN=Cc1ccc(CN2CCOCC2)cn1)[S][Cu][Cl] [complex 1, [Cu(L^1)Cl]] in terms of cellular accumulation A2780 is 0.63 ± 0.09 nmol Cu/mg protein

// sample [Cl][Cu][S]C(=NN=Cc1ccc(CN2CCOCC2)cn1)N1CCOCC1 [complex 4, [Cu(L^4)Cl]] , its cellular accumulation A2780 was 3.2 ± 0.7 nmol Cu/mg protein

Record [Cl][Cu][S]C(=NN=Cc1ccc(CN2CCOCC2)cn1)N1CCCC1 [complex 3, [Cu(L^3)Cl]] . Reported cellular accumulation A2780: 2.2 ± 0.6 nmol Cu/mg protein
